molecular target: Streptavidin (Streptomyces avidinii); experiment: streptavidin binders on small-molecule microarray, primary screen, artefact control for SMM compound annotation, biophysical, 635/667 nm fluorescence (AID 1147); settings: streptavidin binding, higher = more signal;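 note: signal reflects streptavidin binding to arrayed compounds as a control protein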
Below, each entry is listed alongside its reported composite z-score.
Just the number, please, no unit attached.

The following molecules have reported results that may help.
CO[C@H]1COC(=O)CC=C[C@@H](C)COC(=O)[C@H]2CCCN2C(=O)CC=C[C@H]1C = -0.547
COc1cccc([C@H]2Oc3ccc(OC)cc3C(=NOCC[C@@H]3C=C[C@H](OC(C)=O)[C@@H](COC(C)=O)O3)[C@@H]2O)c1 = -0.112

Ask: What composite z-score value was documented for this molecule, CC(C)=NO[C@@H](C)c1cn([C@H](CO)Cc2ccccc2)nn1 ?
Reply: 0.561

Ask: Would you mind telling me what composite z-score value was observed for CCN1C(=O)[C@H]2[C@H]3[C@H](O)[C@H](O)CC(=NOCC(C)C)[C@H]3CC[C@H]2C1=O ?
Reply: 0.342

Ask: I would be grateful if you could share the reported composite z-score for CCc1cc2c(nc1CC)CCN(CCC(C)=NOCC[C@@H]1C=C[C@H](OC(C)=O)[C@@H](COC(C)=O)O1)C2 .
Reply: 1.78

----------
molecular target: Dihydroorotate dehydrogenase (quinone), mitochondrial (Plasmodium falciparum (isolate 3D7)); assay: PfDHODH enzyme inhibitors, primary screen, biochemical, C-terminal His tag, absorbance 600 nm (AID 1175); conditions: DCIP absorbance 600 nm, higher = more signal, called active from +8 up or from −8 down;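 note: recombinant parasite enzyme with a five histidine tag at its C terminus; test concentration not given here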
Quick rule for you: composite z-score at -0.08 or higher means 1 (yes), lower means 0 (no).

Before answering, review these 5 worked examples.
CO[C@H]1COC(=O)CCC[C@H](C)[C@@H](OC)COC(=O)CC=C[C@@H]1C = 0 (no)
CCOC(=O)[C@H](CC(C)C)NC(=O)CCC1CC(OC(=O)NCc2ccc3c(c2)OCO3)CC2(CCCC(COC(=O)NCCOC)O2)O1 (stereo partly drawn) = 0 (no)
C[C@@H]1CC[C@@H](C(=O)O)N[C@H]1c1cccc(N2CCOCC2)c1 = 1 (yes)
COc1ccc(COC(=O)NN=C2C[C@@H](O)[C@@H](O)[C@@H]3[C@@H]4C(=O)N([C@@H](C)c5ccccc5)C(=O)[C@@H]4CC[C@H]23)cc1 = 0 (no)
CC(C)[C@@H](OCc1ccccc1)[C@H](C)C=NO[C@H](C)c1cn([C@@H]2COC[C@H]2O)nn1 = 0 (no)

Ask: Test whether the compound CC(C)=CCCC(C)=CCON=C1C[C@@H](O)[C@@H](O)[C@@H]2[C@@H]3C(=O)N(c4cccc(Oc5ccccc5)c4)C(=O)[C@@H]3CC[C@H]12 records composite z-score of -0.08 or higher.
Reply: 0 (no)

Ask: Could you please find out whether OC[C@H]1O[C@H](C#Cc2ccccc2)C=C[C@@H]1O has composite z-score that meets -0.08 or exceeds it?
Reply: 0 (no)

Ask: Item CC(CCC(=O)OC[C@H]1O[C@H](C#Cc2ccccc2)C=C[C@@H]1Oc1ccc(C)cc1)=NO[C@@H](C)c1cc(-c2c(C)cc(C)cc2C)no1 with composite z-score of -0.08 or above?
Reply: 1 (yes)

Ask: // inclusive: composite z-score at least -0.08? input: CCOC(=O)[C@H](CC(C)C)NC(=O)CCC1CC(OC(=O)NCc2ccc3c(c2)OCO3)CC2(CCCC(COC(=O)NCc3ccccc3)O2)O1 (stereo partly drawn)
Reply: 1 (yes)

Ask: Decide: is the reported value of composite z-score for CN1CCc2nc(-c3ccccc3)c(-c3ccccc3)cc2C1 equal to or greater than -0.08?
Reply: 0 (no)

Ask: Check if composite z-score >= -0.08 (inclusive). Item: COC(=O)[C@H](Cc1ccccc1)NC(=O)[C@@H](C)CO
Reply: 0 (no)

Ask: # bool: composite z-score of CCOC(=O)[C@H](CC(C)C)NC(=O)CCC1CC(OC(=O)NCCc2ccc(F)cc2)CC2(CCCC(COC(=O)NCCCN3CCCC3=O)O2)O1 (stereo partly drawn) >= -0.08
Reply: 1 (yes)

----------
This section presents compounds with their documented z-score values.
experiment: modulators of S6 phosphorylation in cells, primary screen, cell-based, A549, cytoblot, luminescence, serum-stimulated (AID 1158); conditions: A549 phospho-S6 cytoblot, 5 h, higher = more signal;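 note: serum-stimulated A549 lung adenocarcinoma cells; signal is phosphorylated S6 detected by cytoblot immunostaining with HRP secondary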
Field format: numeric only.

Some solved cases for reference:
CCO[C@H](c1cc(OC)cc([N+](=O)[O-])c1OC)[C@H](C)[C@@H](OC)[C@H](C)C=CCC(=O)OC = -0.421
O=C1C2=CC[C@H]3C(=O)N(c4ccc(F)cc4F)C(=O)[C@H]3[C@H]2[C@H](O)[C@@H]2O[C@H]12 = 0.311
CCN1C(=O)[C@H]2[C@H]3[C@H](O)[C@H](O)CC(=NOCC(C)C)[C@H]3CC[C@H]2C1=O = -0.812
C[C@H]1CC[C@@H](C(=O)O)N[C@@H]1c1cccc(N2CCCC2=O)c1 = 0.42
C=CC[C@@H]1C=C[C@H](ON=CC[C@@H]2C=C[C@H](OC(C)=O)[C@@H](COC(C)=O)O2)[C@@H](CO)O1 = 0.166

Ask: State the recorded z-score for this entry: C#CCCCON=C1C[C@@H](O)[C@@H](O)[C@@H]2[C@@H]3C(=O)N([C@@H](C)c4ccccc4)C(=O)[C@@H]3CC[C@@H]12
Reply: -0.507

Ask: Looking for the measured z-score of COc1ccc(COC(=O)NN=C2C[C@@H](O)[C@@H](O)[C@@H]3[C@@H]4C(=O)N(Cc5ccc6c(c5)OCO6)C(=O)[C@@H]4CC[C@H]23)cc1 , can you help?
Reply: 0.767

Ask: Quick one: z-score of COC(=O)[C@H](C)NC(=O)CCC1CC(OC(=O)NCCc2ccc(F)cc2)CC2(CCCC(COC(=O)NCc3ccccc3)O2)O1 (stereo partly specified) ?
Reply: 0.788

Ask: Fill blank: measured z-score of the compound COC(=O)[C@H](C)NC(=O)CCC1CC(OC(=O)NCc2cccc3ccccc23)CC2(CCCC(COC(=O)NCCC(C)C)O2)O1 (stereo partly specified) is ____.
Reply: -0.463

----------
assay: S. cerevisiae RM11-1a growth modifiers, primary screen, strain RM11-1a, OD600, basal, 24 h (AID 1177); details: OD600, 24 h, higher = more signal, called active from +8 up or from −8 down;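 note: cultures grown under basal conditions with no added stressor; test concentration not given here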
Overview of reported z-score across a group of compounds:
Provide a numeric answer; units are not to be included.

Previously resolved entries follow.
CC(=O)OC[C@H]1O[C@H](CC=NOCC[C@@H]2C=C[C@H](OC(C)=O)[C@@H](COC(C)=O)O2)C=C[C@@H]1OC(C)=O = 0.0282
CC(C)CON=C1[C@H]2CCn3c(=O)n(C)c(=O)n3[C@H]2[C@H](O)[C@@H]2O[C@H]12 = -0.353

Ask: Sample CC(C)(C)N1C(=O)[C@H]2[C@H]3[C@H](O)[C@H](O)CC(=NNC(=O)OCc4ccccc4)[C@@H]3CC[C@H]2C1=O — what was its z-score?
Reply: -0.168

Ask: Give the measured z-score of CO[C@@H]1COC(=O)[C@@H]2CCCN2C(=O)[C@@H](C)COC(=O)CCC[C@H]1C .
Reply: -2.66

----------
test: binders from COS7 lysate, DM2A8 probe, primary screen, torsin A project, cell lysate, small-molecule microarray, fluorescence 635/667 (AID 1065); conditions: higher = more signal, COS7 lysate expressing mutant human TOR1A
Short version: composite z-score at least 0.1 is Satisfied, less is Not satisfied.

Ask: Can CC(C)(C)N1C(=O)[C@H]2[C@H]3[C@H](O)[C@H](O)CC(=NNC(=O)OCc4ccccc4)[C@H]3CC[C@H]2C1=O be said to have composite z-score at or above 0.1?
Reply: Not satisfied

Ask: Could you please find out whether C[C@@H]1CC[C@H]2C(=O)OC(Cc3ccccc3)CN2[C@H]1c1ccc(Br)cc1 (some centres not stated) has composite z-score that meets 0.1 or exceeds it?
Reply: Not satisfied

Ask: // inclusive: composite z-score at least 0.1? input: C[C@H]1C=CCC(=O)OC[C@H](C)C(=O)N2CCC[C@H]2C(=O)OC1
Reply: Satisfied

Ask: Can CCOC(=O)CCN1C(=O)[C@H]2[C@H]3[C@H](O)[C@H](O)CC(=O)[C@@H]3CC[C@H]2C1=O be said to have composite z-score at or above 0.1?
Reply: Satisfied

Ask: Would you say CO[C@@H]1[C@H](O)CO[C@H]1C=Cc1ccccc1 shows composite z-score at minimum 0.1?
Reply: Not satisfied

Ask: Please check the record C#CCCCON=C1[C@H]2CCn3c(=O)n(Cc4cc5c(cc4Cl)OCO5)c(=O)n3[C@H]2[C@H](O)[C@@H]2O[C@H]12 and state if its composite z-score is at or above 0.1.
Reply: Satisfied

Ask: Could you please find out whether CCOC(=O)[C@H](Cc1ccccc1)NC(=O)CCC1CC(OC(=O)NCCc2ccc(F)cc2)CC2(CCCC(COC(=O)NCc3cccc(C(F)(F)F)c3)O2)O1 (some centres not stated) has composite z-score that meets 0.1 or exceeds it?
Reply: Not satisfied

This collection of values is drawn from PubChem BioAssay.
